# Tested on: ABHD6 (Mus musculus)
# Construct: Brain; from tissue; host or cells: mouse brain proteome
# Experimental protocol: In vitro competitive activity-based protein profiling, mouse brain proteome (ABHD6)
# Type: biochemical
# Condition: mouse brain proteome; concentration not given (μM)
# Experimental: [The source words this procedure for another target and reports this target under the same test.] In Vitro Competitive Activity-Based Protein Profiling. Proteomes (human prefrontal cortex or cell membrane fractions) (50 μL, 1.0 mg/mL total protein concentration) were preincubated with varying concentrations of inhibitors at 37° C. After 30 min, FP-Rh or HT-01 (1.0 μL, 50 μM in DMSO) was added and the mixture was incubated for another 30 min at room temperature. Reactions were quenched with SDS loading buffer (15 μL-4×) and run on SDS-PAGE.
Metric name: % Inh ABHD6 Brain (Mouse, μM)

// solved cases for % Inh ABHD6 Brain (Mouse, μM) follow
{"columns": ["Smiles representation", "Tested on", "Assay result"],
 "data": [
  ["O=C(O)C1CCN(c2ccc(CN3CC4(CCN(C(=O)OC(C(F)(F)F)C(F)(F)F)CC4)C3)cc2)CC1", "ABHD6 (Mus musculus)", "### (### is ≥75%)"],
  ["O=C(O)c1cc(CN2CC3(CCN(C(=O)OC(C(F)(F)F)C(F)(F)F)CC3)C2)ccc1C(F)(F)F", "ABHD6 (Mus musculus)", "### (### is ≥75%)"],
  ["CN1CC2(CCN(c3cc(Cl)ccc3CN3CCN(C(=O)OC(C(F)(F)F)C(F)(F)F)CC3)C2)C1", "ABHD6 (Mus musculus)", "# (# is ≤25%)"],
  ["O=C(OC(C(F)(F)F)C(F)(F)F)N1CCC2(CC1)CN(Cc1ccc(C(F)(F)F)cc1N1CCCC1)C2", "ABHD6 (Mus musculus)", "### (### is ≥75%)"],
  ["O=C(OC(C(F)(F)F)C(F)(F)F)N1CCC2(CCN(Cc3ccc(Cl)cc3N3CCC(F)CC3)CC2)C1", "ABHD6 (Mus musculus)", "# (# is ≤25%)"]
]}

Name the recorded % Inh ABHD6 Brain (Mouse, μM) for O=C(OC(C(F)(F)F)C(F)(F)F)N1CCC2(CCCN2Cc2ccc(C(F)(F)F)cc2C2(C(=O)O)CCCC2)CC1 .
# (# is ≤25%)

----------
# Tested on: ABHD6 (Mus musculus)
# Construct: Brain; from tissue; host or cells: mouse brain proteome
# Experimental protocol: In vitro competitive activity-based protein profiling, mouse brain proteome (ABHD6)
# Format: biochemical
# Condition: mouse brain proteome; concentration not given (μM)
Metric name: % Inh ABHD6 Brain (Mouse, μM)

// solved cases for % Inh ABHD6 Brain (Mouse, μM) follow
{"columns": ["Compound", "Assay result"],
 "data": [
  ["O=C(O)CN1CCC2(CC1)CN(c1cc(C(F)(F)F)ccc1CN1CCCC13CCN(C(=O)OC(C(F)(F)F)C(F)(F)F)CC3)C2", "# (# is ≤25%)"],
  ["O=C(OC(C(F)(F)F)C(F)(F)F)N1CC2(CCN(Cc3ccc(N4CCOCC4)cc3Cl)CC2)C1", "### (### is ≥75%)"],
  ["O=C(OC(C(F)(F)F)C(F)(F)F)N1CCC2(CC1)CN(Cc1ccc(Cl)c(Cl)c1)C2", "### (### is ≥75%)"],
  ["CN1CCC2(CCN(c3cc(C(F)(F)F)ccc3CN3CCN(C(=O)OC(C(F)(F)F)C(F)(F)F)CC3)CC2)C1", "# (# is ≤25%)"],
  ["CCN1CCC2(CCN(c3cc(Cl)ccc3CN3CCN(C(=O)OC(C(F)(F)F)C(F)(F)F)CC3)CC2)C1", "# (# is ≤25%)"]
]}

For ABHD6 (Mus musculus), provide % Inh ABHD6 Brain (Mouse, μM) of CC(=O)N1CCC2(CCN(c3cc(Cl)cc(CN4CCCC45CN(C(=O)OC(C(F)(F)F)C(F)(F)F)C5)c3)CC2)C1 please.
### (### is ≥75%)

For ABHD6 (Mus musculus), provide % Inh ABHD6 Brain (Mouse, μM) of O=C(O)C1CCN(c2cc(CN3CCC4(CC3)CCN(C(=O)OC(C(F)(F)F)C(F)(F)F)C4)ccc2C(F)(F)F)CC1 please.
### (### is ≥75%)

For ABHD6 (Mus musculus), provide % Inh ABHD6 Brain (Mouse, μM) of CS(=O)(=O)N1CCCC12CCN(c1cc(C(F)(F)F)ccc1CN1CCN(C(=O)OC(C(F)(F)F)C(F)(F)F)CC1)CC2 please.
# (# is ≤25%)

For ABHD6 (Mus musculus), provide % Inh ABHD6 Brain (Mouse, μM) of O=C(OC(C(F)(F)F)C(F)(F)F)N1CCC2(CC1)CN(Cc1c(Cl)cccc1N1CCOCC1)C2 please.
### (### is ≥75%)

For ABHD6 (Mus musculus), provide % Inh ABHD6 Brain (Mouse, μM) of O=C(OC(C(F)(F)F)C(F)(F)F)N1CCC2(CC1)CN(Cc1c(Cl)cccc1N1CCN(C3CC3)CC1)C2 please.
### (### is ≥75%)

----------
# Tested on: ABHD6 (Mus musculus, UniProt Q8R2Y0)
# Construct: Brain; from tissue; host or cells: mouse brain proteome
# Experimental protocol: In vitro competitive activity-based protein profiling, mouse brain proteome (ABHD6)
# Format: biochemical
# Condition: mouse brain proteome; concentration not given (μM)
Metric name: % Inh ABHD6 Brain (Mouse, μM)

// solved cases for % Inh ABHD6 Brain (Mouse, μM) follow
{"columns": ["Smiles representation", "Metric name", "Assay result"],
 "data": [
  ["CC(=O)N1CC2(CCN(c3cc(Cl)ccc3CN3CCN(C(=O)OC(C(F)(F)F)C(F)(F)F)CC3)C2)C1", "% Inh ABHD6 Brain (Mouse, μM)", "# (# is ≤25%)"],
  ["O=C(OC(C(F)(F)F)C(F)(F)F)N1CCC2(CCN(Cc3ccc(Cl)cc3N3CCOCC3)CC2)C1", "% Inh ABHD6 Brain (Mouse, μM)", "# (# is ≤25%)"],
  ["O=C(OC(C(F)(F)F)C(F)(F)F)N1CC2(CCN(Cc3ccc(N4CCCC4)cc3)CC2)C1", "% Inh ABHD6 Brain (Mouse, μM)", "### (### is ≥75%)"],
  ["CS(=O)(=O)N1CC2(CCN(c3cc(Cl)ccc3CN3CCN(C(=O)OC(C(F)(F)F)C(F)(F)F)CC3)C2)C1", "% Inh ABHD6 Brain (Mouse, μM)", "# (# is ≤25%)"],
  ["O=C(OC(C(F)(F)F)C(F)(F)F)N1CCC2(CC1)CN(Cc1c(Cl)cccc1N1CCCCC1)C2", "% Inh ABHD6 Brain (Mouse, μM)", "### (### is ≥75%)"],
  ["O=C(O)C1CCN(c2cc(CN3CC4(CCN(C(=O)OC(C(F)(F)F)C(F)(F)F)CC4)C3)cc(C(F)(F)F)c2)CC1", "% Inh ABHD6 Brain (Mouse, μM)", "### (### is ≥75%)"]
]}

Name the recorded % Inh ABHD6 Brain (Mouse, μM) for O=C(OC(C(F)(F)F)C(F)(F)F)N1CCC2(CC1)CN(Cc1cccc(N3CCOCC3)c1)C2 .
### (### is ≥75%)

Name the recorded % Inh ABHD6 Brain (Mouse, μM) for O=C(O)C1CCN(c2cc(Cl)cc(CN3CC4(CCN(C(=O)OC(C(F)(F)F)C(F)(F)F)CC4)C3)c2)CC1 .
### (### is ≥75%)

Name the recorded % Inh ABHD6 Brain (Mouse, μM) for O=C(OC(C(F)(F)F)C(F)(F)F)N1CC2(CCN(Cc3ccc(Cl)cc3)CC2)C1 .
### (### is ≥75%)

----------
# Tested on: ABHD6 (Mus musculus, UniProt Q8R2Y0)
# Construct: Brain; from tissue; host or cells: mouse brain proteome
# Sequence (Q8R2Y0 1-336): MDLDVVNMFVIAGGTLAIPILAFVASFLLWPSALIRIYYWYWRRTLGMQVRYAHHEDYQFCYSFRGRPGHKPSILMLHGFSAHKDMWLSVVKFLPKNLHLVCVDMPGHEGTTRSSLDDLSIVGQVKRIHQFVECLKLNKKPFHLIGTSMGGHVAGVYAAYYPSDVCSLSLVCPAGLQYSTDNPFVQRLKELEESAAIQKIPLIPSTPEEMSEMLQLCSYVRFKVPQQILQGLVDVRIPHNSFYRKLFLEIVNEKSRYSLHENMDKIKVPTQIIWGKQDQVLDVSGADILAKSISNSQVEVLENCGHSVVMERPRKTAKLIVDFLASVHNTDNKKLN
# Experimental protocol: In vitro competitive activity-based protein profiling, mouse brain proteome (ABHD6)
# Format: biochemical
# Condition: mouse brain proteome; concentration not given (μM)
Metric name: % Inh ABHD6 Brain (Mouse, μM)

{"columns": ["Molecule", "Tested on", "% Inh ABHD6 Brain (Mouse, μM)"],
 "data": [
  ["COc1cccc(CN2CC3(CCN(C(=O)OC(C(F)(F)F)C(F)(F)F)CC3)C2)c1", "ABHD6 (Mus musculus, UniProt Q8R2Y0)", "### (### is ≥75%)"],
  ["CN(Cc1ccc(F)cc1C1(C(=O)O)CCCC1)C1(C)CCN(C(=O)OC(C(F)(F)F)C(F)(F)F)CC1", "ABHD6 (Mus musculus, UniProt Q8R2Y0)", "# (# is ≤25%)"],
  ["O=C(O)C1CCN(Cc2cc(C(F)(F)F)ccc2C(=O)N2CCCC23CCN(C(=O)OC(C(F)(F)F)C(F)(F)F)CC3)CC1", "ABHD6 (Mus musculus, UniProt Q8R2Y0)", "# (# is ≤25%)"],
  ["O=C(OC(C(F)(F)F)C(F)(F)F)N1CCC2(CCCN2Cc2cc(F)cc(C3(C(=O)O)CCCC3)c2)CC1", "ABHD6 (Mus musculus, UniProt Q8R2Y0)", "# (# is ≤25%)"],
  ["O=C(O)C1CCN(c2cc(F)ccc2CN2CC3(CCN(C(=O)OC(C(F)(F)F)C(F)(F)F)CC3)C2)CC1", "ABHD6 (Mus musculus, UniProt Q8R2Y0)", "# (# is ≤25%)"],
  ["Cc1cc(-c2ccccc2)ccc1CN1CC2(CCN(C(=O)OC(C(F)(F)F)C(F)(F)F)CC2)C1", "ABHD6 (Mus musculus, UniProt Q8R2Y0)", "### (### is ≥75%)"]
]}

For ABHD6 (Mus musculus, UniProt Q8R2Y0), provide % Inh ABHD6 Brain (Mouse, μM) of O=C(O)C1CCN(Cc2cc(CN3CCC4(CC3)CCN(C(=O)OC(C(F)(F)F)C(F)(F)F)C4)cc(C(F)(F)F)c2)CC1 please.
# (# is ≤25%)

For ABHD6 (Mus musculus, UniProt Q8R2Y0), provide % Inh ABHD6 Brain (Mouse, μM) of O=C(O)C1CCCCN1c1cc(CN2CC3(CCN(C(=O)OC(C(F)(F)F)C(F)(F)F)CC3)C2)cc(C(F)(F)F)c1 (stereo not shown) please.
### (### is ≥75%)
